Data origin, for the record: PubChem BioAssay AID1963967

Readings of pIC50 for the listed molecules
# System: 855422-203-R-J1-PDC spheroids with HUVEC/MSC, viability;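 note: agents incubated with spheroids for one week before read-out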
# PROCEDURE DETAILS: Anticancer human tumor 855422-203-R-J1-PDC patient-derived bladder carcinoma cell line growth inhibition [PI3K]
# ASSAY CONDITIONS: curve of first compound; second compound 0.316 µM
# Excerpt: Combinatorial screen of targeted agents with the PI3K inhibitors inavolisib, alpelisib, duvelisib, and copanlisib in multi-cell type tumor spheroids A high-throughput screen of multi-cell type tumor spheroids was designed to identify active combinations of targeted small molecules and PI3K pathway inhibitors. […] Compounds. […] If the clinical Cmax for an agent had not been determined, the highest concentration tested was 10 microM. […]
pIC50: −log10 of the molar value.

- MOLECULE: "Cn1cnc2c(F)c(Nc3ccc(Br)cc3Cl)c(C(=O)NOCCO)cc21 + CC(Nc1ccc2c(c1)OCCn1cc(N3C(=O)OCC3C(F)F)nc1-2)C(N)=O"
  COMPARATOR: ">"
  pIC50: 8.02
- MOLECULE: "CC(=O)c1c(C)c2cnc(Nc3ccc(N4CCNCC4)cn3)nc2n(C2CCCC2)c1=O + COc1c(OCCCN2CCOCC2)ccc2c3n(c(=NC(=O)c4cnc(N)nc4)nc12)CCN3"
  COMPARATOR: ">"
  pIC50: 9.50
- MOLECULE: "CC(Cn1ccc(-c2ccc(C#N)c(Cl)c2)n1)NC(=O)c1cc(C(C)O)[nH]n1 (stereo not given) + COc1c(OCCCN2CCOCC2)ccc2c3n(c(=NC(=O)c4cnc(N)nc4)nc12)CCN3"
  COMPARATOR: ">"
  pIC50: 7.50
- MOLECULE: "CC1(C)CCC(CN2CCN(c3ccc(C(=O)NS(=O)(=O)c4ccc(NCC5CCOCC5)c([N+](=O)[O-])c4)c(Oc4cnc5[nH]ccc5c4)c3)CC2)=C(c2ccc(Cl)cc2)C1 + Cc1nc(NC(=O)N2CCCC2C(N)=O)sc1-c1ccnc(C(C)(C)C(F)(F)F)c1"
  COMPARATOR: "="
  pIC50: 5.28
- MOLECULE: "CNC(=O)c1ccc(N2C(=S)N(c3ccc(C#N)c(C(F)(F)F)c3)C(=O)C2(C)C)cc1F + CC(Nc1ccc2c(c1)OCCn1cc(N3C(=O)OCC3C(F)F)nc1-2)C(N)=O"
  COMPARATOR: "="
  pIC50: 6.58
